Target: T1, Anti-CD28 scFv (VH - linker 1 - VL) (biotinylated (site not stated))
T1 construct: Biotinylated scFv captured on neutravidin coated plates in the panning ELISA
T1 sequence (scFv, as listed by the source): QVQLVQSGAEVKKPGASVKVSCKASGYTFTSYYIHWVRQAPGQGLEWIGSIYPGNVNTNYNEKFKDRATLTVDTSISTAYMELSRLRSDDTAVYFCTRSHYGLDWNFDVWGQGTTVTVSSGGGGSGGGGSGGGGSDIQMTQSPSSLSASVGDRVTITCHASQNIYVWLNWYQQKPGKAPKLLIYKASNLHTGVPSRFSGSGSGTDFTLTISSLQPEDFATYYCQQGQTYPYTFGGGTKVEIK
Test: phage ELISA as above, wells pre-incubated with soluble CD28 (competitor);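 further: ELISA of crude clonal phage supernatants added to wells pre-treated with soluble CD28 in blocking buffer, bound phage read out with HRP-conjugated anti-M13 antibody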
Listing of entries alongside the reported CD28 scFv signal in presence of CD28.
Give the value as a plain number.

The following binders have reported results that may help.
> print(dat)
                       binder  reported
1  MAWCPRILWHQCFN [Phage-381]     0.129
2  IMWCPTSLWNRCVT [Phage-384]     0.129
3  ITWCPTSLWNRCLV [Phage-382]     0.089
4  MDWCPSFLWYECFN [Phage-367]     0.104
5  MHWCPRDLWYECFA [Phage-369]     0.108
6  NHWCPTTLWNRCVA [Phage-386]     0.093
7  MHWCPLHLWNECFA [Phage-378]     0.083

Consider now this further binder.
Fill in the blank: the reported CD28 scFv signal in presence of CD28 of LAGCQRDLATVCVI [Phage-383] is ____.
0.116

Values from patent US20260242478A1
